log10 IC50 overview
Tested on: HEK-293T
Experiment: cells
Type: ADME, cell-based
Details: Homo sapiens, 24 h
Description: Cytotoxicity in HEK293T cells assessed as reduction in cell viability incubated for 24 hrs under hypoxic condition by MTT assay
ENDPOINT LABEL: log10 IC50 (log10 of the value in µM)

>>> print(df.to_string())
                                   compound  measurement
0  CCN(CC)c1ccc(C=O)c(OCc2cn(CCCOc3ccc4ccc(=O)oc4c3)nn2)c1         1.28
1  COc1cccc2c1C(=O)c1c(O)c3c(c(O)c1C2=O)C[C@@](O)(C(=O)CO)C[C@@H]3O[C@H]1C[C@H](N)[C@H](O)[C@H](C)O1 [DOXORUBICIN]         0.02
2  O=Cc1ccccc1OCc1cn(CCCOc2ccc3ccc(=O)oc3c2)nn1         1.14
3  O=Cc1cc(Br)ccc1OCc1cn(CCCOc2ccc3ccc(=O)oc3c2)nn1         0.78
4  NS(=O)(=O)c1ccc(C/N=C/c2ccccc2OCc2cn(CCCOc3ccc4ccc(=O)oc4c3)nn2)cc1         1.14
5  NS(=O)(=O)c1ccc(C/N=C/c2c(OCc3cn(CCCOc4ccc5ccc(=O)oc5c4)nn3)ccc3ccccc23)cc1         2.08
6  NS(=O)(=O)c1ccc(C/N=C/c2cc(Br)ccc2OCc2cn(CCCOc3ccc4ccc(=O)oc4c3)nn2)cc1         0.92
7  C#CCOc1c(/C=N/Cc2ccc(S(N)(=O)=O)cc2)cccc1OC         2.13

---

Target: Carbonic anhydrase 12 (Homo sapiens)
Sequence (O43570 whole entry): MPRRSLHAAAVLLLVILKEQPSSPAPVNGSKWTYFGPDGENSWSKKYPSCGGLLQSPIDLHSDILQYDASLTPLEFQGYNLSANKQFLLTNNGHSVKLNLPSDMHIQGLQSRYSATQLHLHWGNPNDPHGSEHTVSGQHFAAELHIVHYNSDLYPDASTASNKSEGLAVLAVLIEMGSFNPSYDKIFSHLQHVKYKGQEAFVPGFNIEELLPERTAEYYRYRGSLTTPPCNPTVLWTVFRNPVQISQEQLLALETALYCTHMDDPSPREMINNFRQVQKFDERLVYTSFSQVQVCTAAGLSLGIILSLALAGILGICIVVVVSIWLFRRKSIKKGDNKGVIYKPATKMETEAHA
ENDPOINT LABEL: Ki

                                 smiles_str  measurement
0  O=Cc1ccc(OCc2cn(CCCOc3ccc4ccc(=O)oc4c3)nn2)cc1      > 10 µM

---

pKi overview
Biological target: Carbonic anhydrase 9 (Homo sapiens)
pKi: −log10 of the molar value.
ENDPOINT LABEL: pKi

                                 smiles_str  measurement
0  C#CCOc1ccc2ccccc2c1/C=N/Cc1ccc(S(N)(=O)=O)cc1         5.96
1  C#CCOc1cc(N(CC)CC)ccc1/C=N/Cc1ccc(S(N)(=O)=O)cc1         6.70
2  NS(=O)(=O)c1ccc(C/N=C/c2cc(Br)ccc2OCc2cn(CCCOc3ccc4ccc(=O)oc4c3)nn2)cc1         6.80
3  O=Cc1cc([N+](=O)[O-])ccc1OCc1cn(CCCOc2ccc3ccc(=O)oc3c2)nn1         6.86
4  COc1cc(/C=N/Cc2ccc(S(N)(=O)=O)cc2)ccc1OCc1cn(CCCOc2ccc3ccc(=O)oc3c2)nn1         6.12
5  NS(=O)(=O)c1ccc(C/N=C/c2cc([N+](=O)[O-])ccc2OCc2cn(CCCOc3ccc4ccc(=O)oc4c3)nn2)cc1         6.07
6  C#CCOc1cccc(/C=N/Cc2ccc(S(N)(=O)=O)cc2)c1         5.69
7  COc1cc(C=O)ccc1OCc1cn(CCCOc2ccc3ccc(=O)oc3c2)nn1         6.88
8  NS(=O)(=O)c1ccc(C/N=C/c2ccc(OCc3cn(CCCOc4ccc5ccc(=O)oc5c4)nn3)cc2)cc1         6.77
9  C#CCOc1ccc(/C=N/Cc2ccc(S(N)(=O)=O)cc2)cc1OC         7.09
